# Tested on: SW-620 colon
# Assay Comment: NCI tumour cell line growth inhibition, 48 h
Measured TGI values are reported for all entries that follow.

>  <Compound>
Clc1ccc(C2=NOC(C3CCCCC3)C2)cc1 (stereo not given)

>  <TGI>
> 100 µM

$$$$
>  <Compound>
CC1SC(c2ccc(Cl)c(Cl)c2)N(NC(=O)C(O)c2ccccc2)C1=O (stereo not given)

>  <TGI>
> 100 µM

$$$$
>  <Compound>
COc1ccc2[nH]c(C(O)(Cc3cccnc3)Cc3cccnc3)cc2c1

>  <TGI>
> 100 µM

$$$$
>  <Compound>
COc1cc(OC)cc(C2C(C#N)=C(N)Oc3c2ccc2ccc(O)cc32)c1 (stereo not given)

>  <TGI>
14.4 µM

$$$$
>  <Compound>
N#C/C(=C\c1c(Cl)cccc1Cl)c1ccccc1

>  <TGI>
> 100 µM

$$$$
